Reference source: PubChem BioAssay (NCI)

Test system: M14 melanoma
Experimental details: NCI-60 one-dose screen, 48 h
Assay context: 10 µM
The panel holds about 83,000 compounds, 20% with a hit somewhere; the sample as a whole holds those more often. Active and inactive are the calls of the source. How the source made its calls: active means growth percent below 10; inactive means the rest.
Possible outcomes: active, inactive

{"Compound": "CCCOC(=O)C(O)c1ccccc1 (stereo unspecified)", "Tgt": "M14 melanoma", "Label value": "inactive"}
{"Compound": "O=[N+]([O-])c1ccc(/C=C/C=C/c2ccccc2)c(Cl)c1", "Tgt": "M14 melanoma", "Label value": "inactive"}
{"Compound": "Brc1cnc2ccccc2c1", "Tgt": "M14 melanoma", "Label value": "inactive"}
{"Compound": "COC(=O)Nc1nc2ccc(C(=O)c3ccc(F)cc3)cc2[nH]1", "Tgt": "M14 melanoma", "Label value": "inactive"}
{"Compound": "COc1cc2cc(c1Cl)N(C)C(=O)C[C@H](OC(=O)[C@H](C)N(C)C(C)=O)[C@]1(C)O[C@H]1[C@H](C)[C@@H]1C[C@@](O)(NC(=O)O1)[C@H](OC)C=C/C=C(\\C)C2", "Tgt": "M14 melanoma", "Label value": "active"}
{"Compound": "C=C[Si](OC(C)=O)(OC(C)=O)OC(C)=O", "Tgt": "M14 melanoma", "Label value": "inactive"}
